- method notes: Pharmacokinetics in beagle dogs
- Format: in vivo
- cond: dog, in vivo; Table 9 (beagle dogs), PO 5 mg/kg; read-out: AUC0-∞ (ng · h/mL) PO

| compound | quantity unit | AUC(0-inf) |
| --- | --- | --- |
| Cc1cc(Nc2ncc(Cl)c(Nc3ccccc3S(=O)(=O)C(C)C)n2)c(OC(C)C)cc1C1=CCN(C2CCOCC2)CC1 [Cpd. No. 5] | ng·h/mL | 3710 |

---

- method notes: Pharmacokinetics in beagle dogs
- Format: in vivo
- cond: dog, in vivo; Table 9 (beagle dogs), IV 1 mg/kg; read-out: Vss (iv)

| compound | Vd / L/kg |
| --- | --- |
| Cc1cc(Nc2ncc(Cl)c(Nc3ccccc3S(=O)(=O)C(C)C)n2)c(OC(C)C)cc1C1=CCN(C2CCOCC2)CC1 [Cpd. No. 5] | 10.8 |

---

- target system: ALK L1196M (Homo sapiens, UniProt Q9UM73, L1196M)
- Construct: made in house; host or cells: SF9 insect cells
- method notes: Mutant ALK kinase inhibition, Lance TR-FRET, L1196M
- Format: biochemical
- cond: Table 5; ATP 100 μM
measured parameter: IC50 (nM)

| structure | recorded value |
| --- | --- |
| Cc1cc(Nc2ncc(Cl)c(Nc3ccccc3S(=O)(=O)C(C)C)n2)c(OC(C)C)cc1C1=CCN(C2CCOCC2)CC1 | 0.73 |

---

- System: H3122 cells (EML4-ALK)
- method notes: Cell growth inhibition assay (WST-8), H3122
- Format: cell-based
- cond: Homo sapiens, NCI-H3122, read-out: H3122 (nM) (EML4-ALK), 50% of cell growth inhibition (IC50), WST-8, versus DMSO control
measured parameter: IC50

| compound | recorded value |
| --- | --- |
| Cc1cc(Nc2ncc(Cl)c(Nc3ccccc3S(=O)(=O)C(C)C)n2)c(OC(C)C)cc1C1=C[C@H](C)N(C)[C@H](C)C1 (racemic) | 54.9 nM |
| Cc1cc(Nc2ncc(Cl)c(Nc3ccccc3S(=O)(=O)C(C)C)n2)c(OC(C)C)cc1C1=C[C@H](C2CC2)N(C)[C@H](C2CC2)C1 (racemic) | 160 nM |
| Cc1cc(Nc2ncc(Cl)c(Nc3ccccc3S(=O)(=O)C(C)C)n2)c(OC(C)C)cc1C1=CCN(C2CCOCC2)CC1 | 27 nM |
| Cc1cc(Nc2ncc(Cl)c(Nc3ccccc3S(=O)(=O)C(C)C)n2)c(OC(C)C)cc1C1=C[C@H](C2CC2)N[C@H](C2CC2)C1 (racemic) | 196 nM |
| Cc1cc(Nc2ncc(Cl)c(Nc3ccccc3S(=O)(=O)C(C)C)n2)c(OC(C)C)cc1C1=CC(C)(C)N(C)C(C)(C)C1 | 92 nM |
| Cc1cc(Nc2ncc(Cl)c(Nc3ccccc3S(=O)(=O)C(C)C)n2)c(OC(C)C)cc1C1=CC(C)(C)NC(C)(C)C1 | 132 nM |
| Cc1cc(Nc2ncc(Cl)c(Nc3ccccc3S(=O)(=O)C(C)C)n2)c(OC(C)C)cc1C1=C[C@H](C)N[C@H](C)C1 (racemic) | 54.9 nM |

---

- target system: INSRR (Homo sapiens, UniProt P14616)
- Construct: purchased LeadHunter Discovery Services (currently DiscoverX Corporation), KINOMEscan screening service
- method notes: KINOMEscan kinase panel, INSRR
- Assay type: binding

| structure | quantity unit | Kd |
| --- | --- | --- |
| Cc1cc(Nc2ncc(Cl)c(Nc3ccccc3S(=O)(=O)C(C)C)n2)c(OC(C)C)cc1C1=CCN(C2CCOCC2)CC1 | nM | 32 |

---

- target system: FAK (Homo sapiens, UniProt Q05397)
- Construct: purchased LeadHunter Discovery Services (currently DiscoverX Corporation), KINOMEscan screening service
- method notes: KINOMEscan kinase panel, FAK
- Format: binding

| structure | Kd / nM |
| --- | --- |
| Cc1cc(Nc2ncc(Cl)c(Nc3ccccc3S(=O)(=O)C(C)C)n2)c(OC(C)C)cc1C1=CCN(C2CCOCC2)CC1 | 5.4 |

---

- target system: wild-type human ALK protein (cytoplasmic domain, amino acid 1058-1620) (Homo sapiens)
- Construct: The cytoplasmic domain (amino acid 1058-1620) of wild-type human ALK protein; purchased Carna Biosciences, Inc (Japan)
- method notes: Wild-type ALK kinase inhibition, Lance TR-FRET assay
- Format: biochemical
- cond: Table 5; ATP 100 μM; read-out: IC50 (nM), WT
measured parameter: IC50

| structure | measured parameter | recorded value |
| --- | --- | --- |
| Cc1cc(Nc2ncc(Cl)c(Nc3ccccc3S(=O)(=O)C(C)C)n2)c(OC(C)C)cc1C1=CCN(C2CCOCC2)CC1 | IC50 | 0.85 nM |

---

- method notes: Pharmacokinetics in SD rats
- Format: in vivo
- cond: Sprague-Dawley, rat, in vivo, iv, 1 mg/kg, Table 8 (SD rats), IV 1 mg/kg; read-out: t1/2 (h) IV (converted)
measured parameter: half-life (h)

| structure | recorded value |
| --- | --- |
| Cc1cc(Nc2ncc(Cl)c(Nc3ccccc3S(=O)(=O)C(C)C)n2)c(OC(C)C)cc1C1=CCN(C2CCOCC2)CC1 | 3.94 |

---

- method notes: Pharmacokinetics in SD rats
- Assay type: in vivo
- cond: Sprague-Dawley, rat, in vivo, iv, 1 mg/kg, Table 8 (SD rats), IV 1 mg/kg; read-out: AUC0-∞ (ng · h/mL) IV
measured parameter: AUC(0-inf) (ng·h/mL)

| structure | measured parameter | quantity unit | recorded value |
| --- | --- | --- | --- |
| Cc1cc(Nc2ncc(Cl)c(Nc3ccccc3S(=O)(=O)C(C)C)n2)c(OC(C)C)cc1C1=CCN(C2CCOCC2)CC1 | AUC(0-inf) | ng·h/mL | 576 |

---

- target system: LTK (Homo sapiens)
- Construct: purchased LeadHunter Discovery Services (currently DiscoverX Corporation), KINOMEscan screening service
- method notes: KINOMEscan kinase panel, LTK
- Format: binding

| molecule | Kd |
| --- | --- |
| Cc1cc(Nc2ncc(Cl)c(Nc3ccccc3S(=O)(=O)C(C)C)n2)c(OC(C)C)cc1C1=CCN(C2CCOCC2)CC1 [Cpd. No. 5] | 0.62 nM |

---

- target system: INSR (Homo sapiens, UniProt P06213)
- Construct: purchased LeadHunter Discovery Services (currently DiscoverX Corporation), KINOMEscan screening service
- method notes: KINOMEscan kinase panel, INSR
- Type: binding

| structure | Kd (nM) |
| --- | --- |
| Cc1cc(Nc2ncc(Cl)c(Nc3ccccc3S(=O)(=O)C(C)C)n2)c(OC(C)C)cc1C1=CCN(C2CCOCC2)CC1 | 54 |

---

- method notes: Pharmacokinetics in beagle dogs
- Assay type: in vivo
- cond: dog, in vivo; Table 9 (beagle dogs), IV 1 mg/kg
measured parameter: MRT inf

| compound | recorded value |
| --- | --- |
| Cc1cc(Nc2ncc(Cl)c(Nc3ccccc3S(=O)(=O)C(C)C)n2)c(OC(C)C)cc1C1=CCN(C2CCOCC2)CC1 [Cpd. No. 5] | 22.1 h |

---

- method notes: Pharmacokinetics in beagle dogs
- Format: in vivo
- cond: dog, in vivo; Table 9 (beagle dogs), IV 1 mg/kg; read-out: Cmax(ng/mL) IV
measured parameter: Cmax (ng/mL)

| structure | measured parameter | recorded value |
| --- | --- | --- |
| Cc1cc(Nc2ncc(Cl)c(Nc3ccccc3S(=O)(=O)C(C)C)n2)c(OC(C)C)cc1C1=CCN(C2CCOCC2)CC1 | Cmax | 314 |

---

- target system: ALK G1202R (Homo sapiens, UniProt Q9UM73, G1202R)
- method notes: Mutant ALK kinase inhibition, Lance TR-FRET, G1202R
- Format: biochemical
- cond: Table 5; ATP 100 μM; read-out: IC50 (nM), G1202R

| structure | IC50, nM |
| --- | --- |
| Cc1cc(Nc2ncc(Cl)c(Nc3ccccc3S(=O)(=O)C(C)C)n2)c(OC(C)C)cc1C1=CCN(C2CCOCC2)CC1 | 9.2 |

---

The entries below come with measured IC50 values attached.
- target system: wild-type human ALK protein (cytoplasmic domain, amino acid 1058-1620) (Homo sapiens, UniProt Q9UM73)
- Construct: The cytoplasmic domain (amino acid 1058-1620) of wild-type human ALK protein; purchased Carna Biosciences, Inc (Japan)
- method notes: Wild-type ALK kinase inhibition, Lance TR-FRET assay
- Assay type: biochemical
- cond: Table 4; target not given; Cpd. No. 5 value equals WT ALK IC50 of Table 5; read-out: Inhibitory activity
measured parameter: IC50 (nM)

| molecule | recorded value |
| --- | --- |
| Cc1cc(Nc2ncc(Cl)c(Nc3ccccc3S(=O)(=O)C(C)C)n2)c(OC(C)C)cc1C1=C[C@H](C)N(C)[C@H](C)C1 (racemic) [compound 10] | 0.98 |
| Cc1cc(Nc2ncc(Cl)c(Nc3ccccc3S(=O)(=O)C(C)C)n2)c(OC(C)C)cc1C1=CCN(C2CCOCC2)CC1 [Cpd. No. 5] | 0.85 |
| Cc1cc(Nc2ncc(Cl)c(Nc3ccccc3S(=O)(=O)C(C)C)n2)c(OC(C)C)cc1C1=C[C@H](C2CC2)N[C@H](C2CC2)C1 (racemic) [compound 15] | 6.6 |
| Cc1cc(Nc2ncc(Cl)c(Nc3ccccc3S(=O)(=O)C(C)C)n2)c(OC(C)C)cc1C1=CC(C)(C)N(C)C(C)(C)C1 [compound 1] | 1.8 |
| Cc1cc(Nc2ncc(Cl)c(Nc3ccccc3S(=O)(=O)C(C)C)n2)c(OC(C)C)cc1C1=C[C@H](C2CC2)N(C)[C@H](C2CC2)C1 (racemic) [compound 16] | 6.3 |
| Cc1cc(Nc2ncc(Cl)c(Nc3ccccc3S(=O)(=O)C(C)C)n2)c(OC(C)C)cc1C1=CC(C)(C)NC(C)(C)C1 [compound 2] | 4.4 |
| Cc1cc(Nc2ncc(Cl)c(Nc3ccccc3S(=O)(=O)C(C)C)n2)c(OC(C)C)cc1C1=C[C@H](C)N[C@H](C)C1 (racemic) [compound 9] | 1.1 |
